Target: recombinant mouse LPLA2 (PLA2G15) (Mus musculus, UniProt Q8VEB4)
Construct: purchased Proteos Inc. (Kalamazoo, MI)
Sequence (Q8VEB4 34-412): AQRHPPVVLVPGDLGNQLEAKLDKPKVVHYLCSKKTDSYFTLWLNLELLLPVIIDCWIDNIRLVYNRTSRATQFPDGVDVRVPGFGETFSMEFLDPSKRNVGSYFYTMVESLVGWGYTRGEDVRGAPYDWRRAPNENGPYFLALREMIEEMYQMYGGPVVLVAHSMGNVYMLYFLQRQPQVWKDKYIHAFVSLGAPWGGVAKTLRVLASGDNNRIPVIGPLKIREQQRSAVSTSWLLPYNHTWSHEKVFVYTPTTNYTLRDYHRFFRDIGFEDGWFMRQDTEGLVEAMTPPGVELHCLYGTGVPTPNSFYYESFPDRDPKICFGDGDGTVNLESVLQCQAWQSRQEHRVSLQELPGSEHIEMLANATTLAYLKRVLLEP
Test: Transacylase activity of LPLA2 (1-O-acyl-N-acetylsphingosine synthase, cell-free liposome assay)
Assay type: biochemical
Conditions: 1-O-acyl N-acetylsphingosine synthase activity, pH 4.5, DOPC/sulfatide liposomes; read-out: LPLA2 IC50
readout_name: IC50 (µM)
// note: answer is a bare numeric in µM

// solved cases for IC50 follow
1. CCC(=O)O[C@@H](O[P@](=O)(CCCCc1ccccc1)CC(=O)N1C[C@H](C2CCCCC2)C[C@H]1C(=O)O)C(C)C
0.18
2. CC(C)OC(=O)C(C)(C)Oc1ccc(C(=O)c2ccc(Cl)cc2)cc1 [Fenofibrate]
2.25
3. CN1CCC(=C2c3ccccc3CC(=O)c3sccc32)CC1
19.7
4. CC(C)COCC(CN(Cc1ccccc1)c1ccccc1)N1CCCC1.Cl (stereo not drawn) [Bepridil hydrochloride]
7.17
5. CN(C)CCC(c1ccc(Cl)cc1)c1ccccn1 (stereo not drawn)
147
6. c1ccc2c(c1)CCc1ccccc1C2
346
7. CC(C)(C)c1ccc(CN2CCN(C(c3ccccc3)c3ccc(Cl)cc3)CC2)cc1 (stereo not drawn)
9.13
8. CCN(CC)C(C)CN1c2ccccc2Sc2ccccc21 (stereo not drawn)
8.7

# input for lookup
The compound listed as COc1ccnc(C[S+]([O-])c2nc3ccc(OC(F)F)cc3[nH]2)c1OC (stereo not drawn) has a reported IC50 of 6.23
